Just for reference, patent US20130302347A1 is where these values come from.

- SYSTEM TESTED: T1, TMEM149-Fc (human TMEM149 extracellular domain with C-terminal human IgG1 Fc) (human, UniProt Q9H665 23-160)
- T1 construct: also called recombinant human TMEM149-Fc; Fc-TMEM149; not shown: human IgG1 Fc, C-terminal
- T1 sequence: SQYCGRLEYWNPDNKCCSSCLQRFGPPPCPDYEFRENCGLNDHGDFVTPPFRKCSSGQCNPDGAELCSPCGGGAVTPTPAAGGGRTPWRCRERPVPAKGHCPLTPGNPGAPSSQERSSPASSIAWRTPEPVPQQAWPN
- EXPERIMENTAL DETAILS: SPR (BiaCore 3000); TMEM149-Fc captured by anti-human IgG, 1:1 Langmuir fit
pKd: −log10 of the molar value.

BINDER | pKd
FLAG-IGFL1 (recombinant human IGFL1 with FLAG epitope tag) (ligand, Made in CHO cells; Signal peptide cleavage is predicted only; also called hIGFL1; IGFL1-FLAG; not shown: printed both as FLAG-IGFL1 and IGFL1-FLAG, so the end that carries the tag is not) APVAPMTPYLMLCQPHKRCGDKFYDPLQHCCYDDAVVPLARTQTCGNCTFRVCFEQCCPWTFMVKLINQNCDSARTSDDRLCRSVS | 8.92
